EXPERIMENTAL TARGET: mGlu5 receptor (Rattus norvegicus, UniProt P31424)
Construct: expressed in transfected cells
Sequence (P31424 21-1203): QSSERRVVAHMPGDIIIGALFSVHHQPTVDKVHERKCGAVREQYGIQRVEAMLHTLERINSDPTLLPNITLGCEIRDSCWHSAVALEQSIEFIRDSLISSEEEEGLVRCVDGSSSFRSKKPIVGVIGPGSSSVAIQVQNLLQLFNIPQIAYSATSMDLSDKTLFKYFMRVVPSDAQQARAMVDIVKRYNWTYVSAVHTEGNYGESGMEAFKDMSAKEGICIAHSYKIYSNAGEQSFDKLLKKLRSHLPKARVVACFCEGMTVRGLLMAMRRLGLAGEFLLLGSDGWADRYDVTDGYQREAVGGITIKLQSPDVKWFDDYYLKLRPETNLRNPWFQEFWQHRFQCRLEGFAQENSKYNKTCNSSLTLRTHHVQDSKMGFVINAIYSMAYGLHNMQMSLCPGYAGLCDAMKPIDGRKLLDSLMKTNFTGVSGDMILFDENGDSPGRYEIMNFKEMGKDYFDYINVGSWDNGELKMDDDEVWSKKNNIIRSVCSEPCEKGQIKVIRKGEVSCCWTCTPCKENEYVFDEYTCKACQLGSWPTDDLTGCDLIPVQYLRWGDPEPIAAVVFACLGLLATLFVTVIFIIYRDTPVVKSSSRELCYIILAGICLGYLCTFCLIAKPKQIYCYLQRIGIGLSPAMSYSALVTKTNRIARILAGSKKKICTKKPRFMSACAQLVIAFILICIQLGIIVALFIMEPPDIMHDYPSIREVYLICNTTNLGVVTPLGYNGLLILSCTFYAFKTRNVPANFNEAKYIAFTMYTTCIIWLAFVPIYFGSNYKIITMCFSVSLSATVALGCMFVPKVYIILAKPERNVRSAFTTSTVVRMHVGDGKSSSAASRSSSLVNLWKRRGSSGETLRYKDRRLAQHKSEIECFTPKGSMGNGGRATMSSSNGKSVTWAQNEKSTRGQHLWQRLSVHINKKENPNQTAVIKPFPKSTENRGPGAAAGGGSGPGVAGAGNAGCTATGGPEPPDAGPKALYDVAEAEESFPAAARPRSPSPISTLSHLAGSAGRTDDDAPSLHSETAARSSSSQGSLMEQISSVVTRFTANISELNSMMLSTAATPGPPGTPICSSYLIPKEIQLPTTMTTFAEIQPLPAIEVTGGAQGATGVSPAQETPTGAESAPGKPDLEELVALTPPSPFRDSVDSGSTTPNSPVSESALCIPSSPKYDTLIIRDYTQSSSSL
MEASUREMENT NOTES: Shift factor in Ca2+ mobilization assay (rat)
Format: cell-based
Quick reference for Shift (rat, 10 uM) among some molecules
PARAMETER: Shift (rat, 10 uM)

CN1C(=O)N(c2ncc(C#Cc3ccc(F)cc3)cn2)CC1(C)C    1.80
CC1(C)CN(c2ccc(C#Cc3ccccc3)cn2)C(=O)O1    2.63
CC1(C)CN(c2ccc(C#Cc3cccc(F)c3)cn2)C(=O)O1    1.90
CO[C@@H]1C(=O)N(c2ncc(C#Cc3cccc(F)c3)cn2)CC1(C)C    2.62
CN1C(=O)N(c2ccc(C#Cc3cccc(F)c3)cn2)[C@@H]2CCC[C@@H]21    0.82
CC1(C)CCN(c2ccc(C#Cc3ccccc3)cn2)C(=O)C1    12.93
CC1(C)CC(=O)N(c2ccc(C#Cc3cccc(F)c3)cn2)N1    1.44

All values here come from patent US20130123254A1.
